Cited source: paper PMC8145986

Assay: in vitro
REPORTED METRIC: IC50 at 24 h (µM)
Write the number in µM without appending the unit.

In: Give its IC50 at 24 h value. Item: COc1cccc2c1C(=O)c1c(O)c3c(c(O)c1C2=O)C[C@@](O)(C(=O)CO)C[C@@H]3O[C@H]1C[C@H](N)[C@H](O)[C@H](C)O1 [Doxorubicin, reference compound]
Out: 0.66

* * *

Test: Nitric oxide radical scavenging assay (Griess reaction)
Settings: NO radical scavenging
REPORTED METRIC: pIC50
Give only the number. pIC50 is defined as minus log10 of concentration in molar units.

>>> value_reported("NC(=O)c1cc(/C=C/c2ccc(F)cc2)ccc1N [Compound 2b, (E)-2-Amino-5-(4-fluorostyryl)benzamide]")
4.80

In: Item Cc1ccc(S(=O)(=O)Nc2ccc(/C=C/c3ccc(Cl)cc3)cc2C(N)=O)cc1 [Compound 3c] has what recorded pIC50?
Out: 5.07

In: Find the recorded pIC50 belonging to COc1ccc(/C=C/c2ccc(N)c(C(N)=O)c2)cc1 [Compound 2d, (E)-2-Amino-5-(4-methoxystyryl)benzamide] and report it.
Out: 4.95

In: Look up pIC50: COc1ccc(/C=C/c2ccc(NS(=O)(=O)c3ccc(C)cc3)c(C(N)=O)c2)cc1 [Compound 3d]
Out: 4.91

* * *

# pIC50 measurements, system: UniProt P56817
# Sequence (P56817 46-501): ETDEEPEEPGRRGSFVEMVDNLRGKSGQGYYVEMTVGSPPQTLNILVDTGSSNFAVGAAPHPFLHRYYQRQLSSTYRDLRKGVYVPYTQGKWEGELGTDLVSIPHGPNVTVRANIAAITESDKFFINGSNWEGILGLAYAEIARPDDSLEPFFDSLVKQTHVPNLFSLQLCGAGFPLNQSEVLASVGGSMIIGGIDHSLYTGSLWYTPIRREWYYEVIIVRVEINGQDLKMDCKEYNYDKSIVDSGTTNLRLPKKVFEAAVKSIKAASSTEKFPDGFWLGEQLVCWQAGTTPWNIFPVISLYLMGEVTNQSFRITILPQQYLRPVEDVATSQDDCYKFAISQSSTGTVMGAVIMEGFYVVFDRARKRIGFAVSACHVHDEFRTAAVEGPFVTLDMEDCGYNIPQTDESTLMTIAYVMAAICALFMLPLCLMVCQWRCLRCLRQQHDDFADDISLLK
Reminder that pIC50 is minus the log10 of a molar concentration.

// solved cases for pIC50 follow
>>> value_reported("Cc1ccc(S(=O)(=O)Nc2ccc(/C=C/c3ccc(F)cc3)cc2C(N)=O)cc1")
5.00
>>> value_reported("Cc1ccc(S(=O)(=O)Nc2ccc(/C=C/c3ccccc3)cc2C(N)=O)cc1")
4.78
>>> value_reported("Cc1ccc(S(=O)(=O)Nc2ccc(/C=C/c3ccc(Cl)cc3)cc2C(N)=O)cc1")
4.82
>>> value_reported("COc1ccc(/C=C/c2ccc(N)c(C(N)=O)c2)cc1 [Compound 2d, (E)-2-Amino-5-(4-methoxystyryl)benzamide]")
4.76
>>> value_reported("NC(=O)c1cc(/C=C/c2ccccc2)ccc1N [Compound 2a, (E)-2-Amino-5-styrylbenzamide]")
4.80
>>> value_reported("COc1ccc(/C=C/c2ccc(NS(=O)(=O)c3ccc(C)cc3)c(C(N)=O)c2)cc1")
4.71
>>> value_reported("NC(=O)c1cc(/C=C/c2ccc(F)cc2)ccc1N [Compound 2b, (E)-2-Amino-5-(4-fluorostyryl)benzamide]")
4.86

The record that follows has no pIC50 shown yet.
In: Requested read-out pIC50, target or system UniProt P56817, entry NC(=O)c1cc(/C=C/c2ccc(Cl)cc2)ccc1N [Compound 2c, (E)-2-Amino-5-(4-chlorostyryl)benzamide]
Out: 5.17

* * *

Quick record: IC50, AChE (Homo sapiens, UniProt P22303).
Field: numeric (µM). Do not append units.

// solved cases for IC50 follow
>>> value_reported("Cc1ccc(S(=O)(=O)Nc2ccc(/C=C/c3ccccc3)cc2C(N)=O)cc1")
9.5
>>> value_reported("NC(=O)c1cc(/C=C/c2ccccc2)ccc1N [Compound 2a, (E)-2-Amino-5-styrylbenzamide]")
2.3
>>> value_reported("NC(=O)c1cc(/C=C/c2ccc(F)cc2)ccc1N [Compound 2b, (E)-2-Amino-5-(4-fluorostyryl)benzamide]")
5.4
>>> value_reported("COc1ccc(/C=C/c2ccc(NS(=O)(=O)c3ccc(C)cc3)c(C(N)=O)c2)cc1")
11.3
>>> value_reported("COc1ccc(/C=C/c2ccc(N)c(C(N)=O)c2)cc1 [Compound 2d, (E)-2-Amino-5-(4-methoxystyryl)benzamide]")
7.8

In: Item under review: NC(=O)c1cc(/C=C/c2ccc(Cl)cc2)ccc1N [Compound 2c, (E)-2-Amino-5-(4-chlorostyryl)benzamide] . Reported IC50?
Out: 8.6

In: What value of IC50 has been recorded for this entry: "Cc1ccc(S(=O)(=O)Nc2ccc(/C=C/c3ccc(Cl)cc3)cc2C(N)=O)cc1"
Out: 7.8

In: Look up IC50: "Cc1ccc(S(=O)(=O)Nc2ccc(/C=C/c3ccc(F)cc3)cc2C(N)=O)cc1"
Out: 4.3
